Values were extracted from the supplement of paper PMC3545927.

# study system: furin, P09958;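 also: purified furin at 1:10 enzyme:substrate in 50 mM HEPES pH 7.5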
# Sequence (P09958 whole entry): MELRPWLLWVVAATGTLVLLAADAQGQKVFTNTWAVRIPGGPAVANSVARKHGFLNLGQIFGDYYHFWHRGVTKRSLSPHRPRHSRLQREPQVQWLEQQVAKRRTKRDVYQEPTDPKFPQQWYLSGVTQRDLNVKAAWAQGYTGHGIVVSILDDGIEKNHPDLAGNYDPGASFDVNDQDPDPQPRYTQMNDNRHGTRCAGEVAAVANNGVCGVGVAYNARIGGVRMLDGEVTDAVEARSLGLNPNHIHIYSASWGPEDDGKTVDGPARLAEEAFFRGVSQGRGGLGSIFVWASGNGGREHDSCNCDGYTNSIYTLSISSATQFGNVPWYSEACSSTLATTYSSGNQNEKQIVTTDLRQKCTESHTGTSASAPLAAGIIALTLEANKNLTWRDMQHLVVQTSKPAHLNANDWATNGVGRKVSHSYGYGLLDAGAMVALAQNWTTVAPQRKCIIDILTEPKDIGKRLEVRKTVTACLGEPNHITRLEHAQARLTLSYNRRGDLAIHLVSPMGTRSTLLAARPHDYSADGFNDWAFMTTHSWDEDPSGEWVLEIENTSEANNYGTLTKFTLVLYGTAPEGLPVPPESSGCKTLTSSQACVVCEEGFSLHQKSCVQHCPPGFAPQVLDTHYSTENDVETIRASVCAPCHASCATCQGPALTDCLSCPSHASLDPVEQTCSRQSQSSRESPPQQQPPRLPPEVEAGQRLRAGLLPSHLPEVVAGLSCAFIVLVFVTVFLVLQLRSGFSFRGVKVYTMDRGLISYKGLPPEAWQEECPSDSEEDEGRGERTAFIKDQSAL
# assay comment: furin cleavage Z-score vs untreated control; higher = more cleavage, active = 3.5 or more, inactive = 1 or less, 8 variable residues between constant flanks
# conditions: 7.5 min
Some of the results follow. The hit rate among all sequences tested is not known here.
Parameter call: string, one of True = active, False = inactive

| query sequence | class label |
| --- | --- |
| CAALVMAQLLAGNASASA [HC326] | False |
| CAHFKRTRRSAGNASASA [FS-1532] | True |
| CACEIYGACYAGNASASA [HC1593] | False |
| CARQGRFDRSAGNASASA [FS-190] | True |

Ask: Record lookup: outcome of this test for CARQGRSHHLAGNASASA [FS-2167] ?
Result: False

Ask: Returns: the outcome recorded for CARTGRACECAGNASASA [FS-2464] in this assay.
Result: False

Ask: Please state the recorded outcome for this sequence: CADEECSQHLAGNASASA [HC1671]
Result: False
